# measurement_notes: chemical genetic growth profiling, strain panel (AID 1159580);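 note: tested at 20 µM; growth read once vehicle control cultures reached saturation at 30 °C; lower values mean less growth of the strain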
# measurement_setup: S. cerevisiae deletion strains, growth OD, locus YJR043C, strain POL32
Screen size: about 5,500 compounds; about 2,000 (36%) were called active. Roughly 18% stayed inconclusive and do not appear here. Cut-off read from the data, not from the text of the source: active = normalized growth mostly below about 0.91 (no sharp cut-off); inconclusive = no clear call, values can overlap the other calls; inactive = mostly above about 0.92. The list shows a part of the results.
Answer with one of the outcomes active, inactive

For orientation, consider the following solved cases.
[
  {
    "compound": "O=S(=O)(O)c1cccc2cccc(Cl)c12",
    "qualitative_label": "inactive"
  },
  {
    "compound": "Cc1cccc(N(C)C(=S)Oc2ccc3ccccc3c2)c1",
    "qualitative_label": "inactive"
  },
  {
    "compound": "COc1cc(Cl)c(Cl)cc1Cl",
    "qualitative_label": "inactive"
  }
]

Can you look up the reported call for CC(=O)O[C@@H]1CC2C(C)(C)C(=O)[C@@H]3O[C@@H]3[C@]2(C)C2CC[C@]3(C)C(=CC(=O)O[C@H]3c3ccoc3)[C@@]21C (some centres not stated) for me?
inactive

Can you look up the reported call for c1ccc2c(c1)[nH]c1cnccc12 for me?
inactive

Can you look up the reported call for O=C1CCC(=O)N1CNc1ccccc1OC(F)(F)F for me?
inactive

Can you look up the reported call for Cc1cccc(NCN2C(=O)CCC2=O)n1 for me?
inactive

Can you look up the reported call for CC(=O)/C(=C\N(C)C)Sc1nnc(C(F)(F)F)n1C for me?
inactive

Can you look up the reported call for O=C(O)C12CC3CC(CC(Br)(C3)C1)C2 for me?
inactive

Can you look up the reported call for COc1ccc2c(c1)[nH]c1c(C)nccc12 for me?
inactive

Can you look up the reported call for CC(=O)/C(=C\N(C)C)Sc1ccc(Cl)cc1 for me?
active

Can you look up the reported call for COc1ccccc1N=C1SCC(=O)N1Cc1ccco1 for me?
inactive

* * *

# measurement_notes: chemical genetic growth profiling, strain panel (AID 1159580);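 note: tested at 20 µM; growth read once vehicle control cultures reached saturation at 30 °C; lower values mean less growth of the strain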
# measurement_setup: S. cerevisiae deletion strains, growth OD, locus YER002W, strain NOP16
The campaign covered roughly 5,500 compounds. About 2,000 (36%) were called active. Roughly 18% stayed inconclusive and do not appear here. Cut-off read from the data, not from the text of the source: active = normalized growth mostly below about 0.91 (no sharp cut-off); inconclusive = no clear call, values can overlap the other calls; inactive = mostly above about 0.92. Some of the results follow.
Answer with one of the outcomes true for active, false for inactive

For orientation, consider the following solved cases.
[
  {
    "molecule": "Cn1cnc([N+](=O)[O-])c1Sc1ncnc2nc[nH]c12",
    "qualitative_label": "false"
  },
  {
    "molecule": "CC(=O)O[C@H]1C[C@@H]2CC[C@@H]3[C@H](CC[C@@]4(C)[C@H]3C[C@H]([N+]3(C)CCCCC3)[C@@H]4OC(C)=O)[C@@]2(C)C[C@@H]1[N+]1(C)CCCCC1",
    "qualitative_label": "false"
  },
  {
    "molecule": "CNCCNS(=O)(=O)c1cccc2cnccc12",
    "qualitative_label": "false"
  },
  {
    "molecule": "Cn1cnc2c(NC3CCCC3)ncnc21",
    "qualitative_label": "false"
  },
  {
    "molecule": "C(=C\\c1ccccc1)/CN1CCN(C(c2ccccc2)c2ccccc2)CC1",
    "qualitative_label": "true"
  },
  {
    "molecule": "CC(=O)SC1CC2=CC(=O)CC[C@]2(C)C2CC[C@@]3(C)C(CC[C@@]34CCC(=O)O4)C12 (some centres undefined)",
    "qualitative_label": "false"
  },
  {
    "molecule": "Oc1ccc(C2CNCc3sccc32)cc1O (centres undefined)",
    "qualitative_label": "false"
  },
  {
    "molecule": "COc1ccccc1CNCCCCCCNCCCCCCCCNCCCCCCNCc1ccccc1OC",
    "qualitative_label": "false"
  }
]

Can you look up the reported call for Nn1nnc2ccccc21 for me?
false

Can you look up the reported call for CC[C@@H]1Cc2cc(O)ccc2C2=C1c1ccc(O)cc1C[C@H]2CC for me?
false

Can you look up the reported call for C=CCN1CC[C@]23CCCCC2[C@H]1Cc1ccc(O)cc13 (some centres undefined) for me?
false

Can you look up the reported call for CCCN(CCC)[C@@H]1CCc2ccc(O)cc2C1 for me?
false

Can you look up the reported call for Cc1c2ccncc2c(C)c2c1[nH]c1ccccc12 for me?
true
